// data source = paper PMC4336329

I'd be grateful if you could share measured hERG current change (%, negative = inhibition) at 1uM for these entries.
Target: human ether-à-go-go-related gene (hERG) potassium channel (human)
Assay: primary screen, population patch clamp on CHO cells stably expressing hERG; higher = less effect of the substance
Hit rate of the full screen: of about 310,000 compounds, about 2,200 (0.71%) showed an effect of 50% or more. The effect is printed as a negative number. The list comes from a sample in which strong results are over-represented; it also holds close analogues and randomly drawn compounds.
Use % as the unit, but write only the number.

The molecule CCOC(=O)CSc1nc2cc(C(=O)NCC3CCCO3)ccc2c(=O)n1Cc1ccco1 (centres unmarked) showed hERG current change (%, negative = inhibition) at 1uM equal to -18.2

The molecule O=C(NCC1CCCO1)c1ccc2c(=O)n(Cc3ccco3)c(SCC(=O)N3CCCC3)nc2c1 (centres unmarked) showed hERG current change (%, negative = inhibition) at 1uM equal to -54

The molecule `COc1cccc(NC(=O)NCCN2CCCCC2)c1` showed hERG current change (%, negative = inhibition) at 1uM equal to 4.59

The molecule `O=C(COc1ccc2ccc(=O)oc2c1)NCCc1c[nH]c2ccc(F)cc12` showed hERG current change (%, negative = inhibition) at 1uM equal to 12.5

The molecule `COc1ccc(NC(=O)NCCCN2CCc3ccccc3C2)cc1` showed hERG current change (%, negative = inhibition) at 1uM equal to -69.5

====

Target: human ether-à-go-go-related gene (hERG) potassium channel (human, UniProt Q12809)
Sequence (Q12809 whole entry, looked up): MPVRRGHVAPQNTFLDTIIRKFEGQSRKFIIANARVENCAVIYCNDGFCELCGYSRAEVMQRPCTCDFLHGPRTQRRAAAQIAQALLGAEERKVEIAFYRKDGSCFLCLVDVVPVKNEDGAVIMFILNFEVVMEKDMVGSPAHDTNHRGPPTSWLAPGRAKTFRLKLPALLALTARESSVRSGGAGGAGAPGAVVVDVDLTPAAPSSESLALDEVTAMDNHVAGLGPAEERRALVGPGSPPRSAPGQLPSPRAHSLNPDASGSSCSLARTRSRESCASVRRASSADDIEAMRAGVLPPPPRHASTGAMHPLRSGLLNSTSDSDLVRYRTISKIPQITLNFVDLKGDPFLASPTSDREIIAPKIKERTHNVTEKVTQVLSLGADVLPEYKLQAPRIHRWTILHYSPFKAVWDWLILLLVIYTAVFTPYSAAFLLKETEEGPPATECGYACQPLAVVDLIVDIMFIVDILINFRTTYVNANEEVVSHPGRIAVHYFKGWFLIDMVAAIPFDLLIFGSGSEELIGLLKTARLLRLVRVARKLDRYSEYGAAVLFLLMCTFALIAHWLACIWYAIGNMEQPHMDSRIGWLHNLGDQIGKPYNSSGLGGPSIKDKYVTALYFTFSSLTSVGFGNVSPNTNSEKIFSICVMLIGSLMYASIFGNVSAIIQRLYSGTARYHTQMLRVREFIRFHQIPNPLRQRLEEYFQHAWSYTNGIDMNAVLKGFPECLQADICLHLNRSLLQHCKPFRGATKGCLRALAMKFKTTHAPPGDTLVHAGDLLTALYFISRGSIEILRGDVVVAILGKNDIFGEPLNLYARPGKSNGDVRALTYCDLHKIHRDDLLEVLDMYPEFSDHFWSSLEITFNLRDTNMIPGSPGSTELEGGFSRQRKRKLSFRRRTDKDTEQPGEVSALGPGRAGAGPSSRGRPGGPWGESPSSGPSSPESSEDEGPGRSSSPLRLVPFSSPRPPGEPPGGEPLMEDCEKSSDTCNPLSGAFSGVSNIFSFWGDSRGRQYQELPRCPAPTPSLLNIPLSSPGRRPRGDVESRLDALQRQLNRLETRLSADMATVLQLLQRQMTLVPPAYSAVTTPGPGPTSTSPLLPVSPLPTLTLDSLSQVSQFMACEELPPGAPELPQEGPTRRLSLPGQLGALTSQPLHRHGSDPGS
Test: primary screen, population patch clamp on CHO cells stably expressing hERG; higher = less effect of the substance
Out of some 310,000 compounds screened, about 2,200 (0.71%) showed an effect of 50% or more. The effect is printed as a negative number. The full list was thinned out, with strong results kept by preference.
I'd be grateful if you could share measured hERG current change (%, negative = inhibition) at 1uM for these entries.
Use % as the unit, but write only the number.

The compound Cc1cc(C)c(N2C(=O)C3C4CC(=O)C(c5ccccc54)C3C2=O)c(C)c1 (stereo not shown) showed hERG current change (%, negative = inhibition) at 1uM equal to 3.35

The compound `CCCn1c(SCC(=O)Nc2cccc(C(=O)OCC)c2)nnc1-c1ccoc1C` showed hERG current change (%, negative = inhibition) at 1uM equal to 5.88

The compound `CC(=O)Nc1cccc(N2CCCC2=O)c1` showed hERG current change (%, negative = inhibition) at 1uM equal to 4.99

The compound `CCn1c(/C=C/Nc2ccccc2)[n+](CC)c2ccc(Cl)cc21.[I-]` showed hERG current change (%, negative = inhibition) at 1uM equal to -82.8

The compound `CN1CCN(C(=O)/C(=C\c2ccc3c(c2)OCO3)NC(=O)c2cccs2)CC1` showed hERG current change (%, negative = inhibition) at 1uM equal to -75.6

The compound `CCOc1ccc(CC(=O)NNC(=S)NC2CCCCC2)cc1OCC` showed hERG current change (%, negative = inhibition) at 1uM equal to 7.2

The compound `Cc1ccc(NC(=O)/C(=C\c2cccs2)NC(=O)c2ccccc2)cc1` showed hERG current change (%, negative = inhibition) at 1uM equal to -1.02

The compound `O=C(N/C(=C\c1cccs1)C(=O)N1CCOCC1)c1cccs1` showed hERG current change (%, negative = inhibition) at 1uM equal to 6.69

The compound `O=C(Nc1ccccc1)/C(=C\c1cccs1)NC(=O)c1ccccc1` showed hERG current change (%, negative = inhibition) at 1uM equal to 14.9

The compound `O=C(N/C(=C/c1cccs1)C(=O)N1CCOCC1)c1cccs1` showed hERG current change (%, negative = inhibition) at 1uM equal to 8.07

The compound `C=CCOn1c(C)c(C(C)=O)c2c3nonc3ccc21` showed hERG current change (%, negative = inhibition) at 1uM equal to 13.1

The compound `Cc1c2ccccc2nc2c(F)c(N(C)C)c(F)c(F)c12` showed hERG current change (%, negative = inhibition) at 1uM equal to 19.7

The compound `O=C(Nc1c(C(=O)N2CCN(c3ccccn3)CC2)oc2ccccc12)c1ccc([N+](=O)[O-])cc1` showed hERG current change (%, negative = inhibition) at 1uM equal to -4.07

The compound `COCCCn1c(SCC(=O)Nc2ccc3c(c2)OCCO3)nnc1-c1ccoc1C` showed hERG current change (%, negative = inhibition) at 1uM equal to 1.88

The compound `CCOc1cccc(C(=O)Nc2ccc3[nH]ncc3c2)c1` showed hERG current change (%, negative = inhibition) at 1uM equal to 21.7

The compound `CCCn1c(SCC(=O)Nc2cccc(F)c2)nc(O)cc1=O` showed hERG current change (%, negative = inhibition) at 1uM equal to 9.12

The compound O=C(Nc1ccccc1)C1CC=CCC1C(=O)OCC1CCCO1 (stereo not shown) showed hERG current change (%, negative = inhibition) at 1uM equal to -5.31

The compound `Cc1c(CN(C)C)c2c(n1Cc1ccccc1)C(=O)c1ccc(Br)cc1-2.Cl` showed hERG current change (%, negative = inhibition) at 1uM equal to -16.4

The compound `O=C(NCCCN1CCCC1=O)C1CCN(S(=O)(=O)c2cccc(C(F)(F)F)c2)CC1` showed hERG current change (%, negative = inhibition) at 1uM equal to 23.6

The compound `COc1ccc(CN2CCC(C(=O)c3ccc(F)cc3)CC2)cc1` showed hERG current change (%, negative = inhibition) at 1uM equal to -81

The compound `Cc1ccc(NC(=O)CSc2nnc(-c3ccoc3C)n2CCCN(C)C)cc1Cl` showed hERG current change (%, negative = inhibition) at 1uM equal to -70.2

The compound COc1ccccc1CNC(=O)C(NS(=O)(=O)c1ccc2c(c1)OCCO2)C(C)C (stereo not shown) showed hERG current change (%, negative = inhibition) at 1uM equal to 6.69

The compound `Cc1ccc(-n2c(SCC(=O)NC3CCCCC3)nc3c(c2=O)SCC3)cc1` showed hERG current change (%, negative = inhibition) at 1uM equal to 9.81

The compound `O=C(c1ccc(F)cc1)C1CCN(Cc2ccc(F)cc2)CC1` showed hERG current change (%, negative = inhibition) at 1uM equal to 2.51

The compound `CCOCCCN(C)C1CCN(C(=O)c2oc3ccccc3c2NC(=O)c2cccc([N+](=O)[O-])c2)CC1` showed hERG current change (%, negative = inhibition) at 1uM equal to -86

The compound `COc1ccc(C(=O)Nc2cccc(-c3ccc4nncn4n3)c2)cc1` showed hERG current change (%, negative = inhibition) at 1uM equal to 7.11

The compound `CCn1c(/C=C/N(C(C)=O)c2ccccc2)[n+](CC)c2ccc(Cl)cc21.[I-]` showed hERG current change (%, negative = inhibition) at 1uM equal to 5.77

The compound `CCOC(=O)CCc1c(C)nc2cc(-c3ccc(F)cc3)[nH]n2c1=O` showed hERG current change (%, negative = inhibition) at 1uM equal to 8.2

The compound `COc1ccc(OC)c(/C=N/NC(=O)C(=O)N2CCCC2)c1` showed hERG current change (%, negative = inhibition) at 1uM equal to 1.25

The compound `CCN(CC)CCCn1c(SCC(=O)Nc2cccc(F)c2)nnc1-c1ccoc1C` showed hERG current change (%, negative = inhibition) at 1uM equal to -63

The compound `CN1CCN(C(=O)/C(=C\c2cccs2)NC(=O)c2cccs2)CC1` showed hERG current change (%, negative = inhibition) at 1uM equal to -77.3

The compound `CCOC(=O)C1CCN(C(=O)Nc2ccc3snnc3c2)CC1` showed hERG current change (%, negative = inhibition) at 1uM equal to 3.17

The compound `C=CCNC(=S)/C(=C(\[O-])c1ccc(Cl)cc1)[n+]1ccccc1` showed hERG current change (%, negative = inhibition) at 1uM equal to 11.2

The compound `O=C(N/C(=C/c1ccc2c(c1)OCO2)C(=O)N1CCOCC1)c1cccs1` showed hERG current change (%, negative = inhibition) at 1uM equal to 9.57

The compound `Cc1cccc(NC(=O)/C(=C\c2cccs2)NC(=O)c2ccccc2)c1` showed hERG current change (%, negative = inhibition) at 1uM equal to -65.1

The compound `Cc1occc1-c1nnc(SCC(=O)Nc2ccccc2)n1CCc1ccccc1` showed hERG current change (%, negative = inhibition) at 1uM equal to -20.1

The compound `COCCn1c(SCC(=O)Nc2ccc(OC)cc2)nnc1-c1ccoc1C` showed hERG current change (%, negative = inhibition) at 1uM equal to 12.2

The compound `O=C(NCc1ccco1)c1scc2c1OCCO2` showed hERG current change (%, negative = inhibition) at 1uM equal to 6.64

The compound `O=C(N/C(=C\c1ccc2c(c1)OCO2)C(=O)N1CCOCC1)c1cccs1` showed hERG current change (%, negative = inhibition) at 1uM equal to -18.7

The compound `CCc1ccc(NC(=O)CN2CCC(C(=O)c3ccc(OC)cc3)CC2)cc1` showed hERG current change (%, negative = inhibition) at 1uM equal to -3.64
